test: Cytostatic effect on exponentially growing MDBK cells (MTS); type: cell-based, Bovine; settings: bovine; Table 9; reduction of growth of exponentially growing MDBK cells by 50%; mean of 2-5 determinations
What CC50 at 3 days was measured for each of the following?

Task item: Which CC50 at 3 days is reported for this compound? Fc1ccc(Cn2ccc3nc(-c4ccccc4)nc-3c2)cc1
Reply: 40 µg/mL

Task item: Which CC50 at 3 days is reported for this compound? c1ccc(OCCn2ccc3nc(-c4ccccc4)nc-3c2)cc1
Reply: > 100 µg/mL

Task item: Which CC50 at 3 days is reported for this compound? Fc1ccccc1Cn1ccc2nc(-c3ccccc3)nc-2c1
Reply: 50 µg/mL

Task item: Which CC50 at 3 days is reported for this compound? Brc1ccc(Cn2ccc3nc(-c4ccccc4)nc-3c2)cc1
Reply: 13 µg/mL

Task item: Which CC50 at 3 days is reported for this compound? Brc1ccc(Cn2ccc3nc(-c4ccncc4)nc-3c2)cc1
Reply: 62 µg/mL

Task item: Which CC50 at 3 days is reported for this compound? Clc1cccc(-c2nc3ccn(Cc4ccc(Br)cc4)cc-3n2)c1
Reply: > 100 µg/mL

Task item: Which CC50 at 3 days is reported for this compound? Fc1cccc(F)c1-c1nc2ccn(Cc3ccc(Cl)c(Cl)c3)cc-2n1
Reply: 4 µg/mL

Task item: Which CC50 at 3 days is reported for this compound? Fc1cccc(-c2nc3ccn(Cc4ccc(F)cc4F)cc-3n2)c1
Reply: > 100 µg/mL

Task item: Which CC50 at 3 days is reported for this compound? COc1ccccc1Cn1ccc2nc(-c3ccccc3)nc-2c1
Reply: 36 µg/mL

Task item: Which CC50 at 3 days is reported for this compound? Clc1cccc(Cn2ccc3nc(-c4ccccc4)nc-3c2)c1
Reply: 51 µg/mL

Task item: Which CC50 at 3 days is reported for this compound? Cc1ccccc1Cn1ccc2nc(-c3ccccc3)nc-2c1
Reply: 28 µg/mL

Task item: Which CC50 at 3 days is reported for this compound? Fc1cccc(F)c1Cn1ccc2nc(-c3c(F)cccc3F)nc-2c1
Reply: > 79 µg/mL

Task item: Which CC50 at 3 days is reported for this compound? Fc1ccc(Cn2ccc3nc(-c4c(F)cccc4F)nc-3c2)cc1
Reply: > 100 µg/mL

Task item: Which CC50 at 3 days is reported for this compound? Brc1ccc(Cn2ccc3nc(-c4cccc(Br)c4)nc-3c2)cc1
Reply: > 100 µg/mL

Task item: Which CC50 at 3 days is reported for this compound? Brc1ccc(Cn2ccc3nc(-c4cccc5ccccc45)nc-3c2)cc1
Reply: 9.4 µg/mL

Task item: Which CC50 at 3 days is reported for this compound? Fc1cccc(-c2nc3ccn(Cc4ccc(Br)cc4)cc-3n2)c1
Reply: > 100 µg/mL

Task item: Which CC50 at 3 days is reported for this compound? Clc1ccc(Cn2ccc3nc(-c4cccc(Br)c4)nc-3c2)cc1
Reply: > 100 µg/mL

Task item: Which CC50 at 3 days is reported for this compound? Fc1cc(F)c(Cn2ccc3nc(-c4c(F)cccc4F)nc-3c2)c(F)c1
Reply: > 100 µg/mL

Task item: Which CC50 at 3 days is reported for this compound? Cc1cccc(-c2nc3ccn(Cc4ccc(Br)cc4)cc-3n2)c1
Reply: > 77 µg/mL

Task item: Which CC50 at 3 days is reported for this compound? c1ccc(Cn2ccc3nc(-c4ccccc4)nc-3c2)cc1
Reply: 46 µg/mL

Task item: Which CC50 at 3 days is reported for this compound? CCc1nc2ccn(Cc3ccc(Br)cc3)cc-2n1
Reply: > 100 µg/mL

These data points were gathered from patent US8779141B2.
